# Lookup of reported koff keyed by entry
testedSystem: T1, human tissue factor pathway inhibitor (TFPI) (human, UniProt P10646 29-304, limits assumed)
T1 construct: bought; also called hTFPI; human TFPI
T1 sequence (looked up): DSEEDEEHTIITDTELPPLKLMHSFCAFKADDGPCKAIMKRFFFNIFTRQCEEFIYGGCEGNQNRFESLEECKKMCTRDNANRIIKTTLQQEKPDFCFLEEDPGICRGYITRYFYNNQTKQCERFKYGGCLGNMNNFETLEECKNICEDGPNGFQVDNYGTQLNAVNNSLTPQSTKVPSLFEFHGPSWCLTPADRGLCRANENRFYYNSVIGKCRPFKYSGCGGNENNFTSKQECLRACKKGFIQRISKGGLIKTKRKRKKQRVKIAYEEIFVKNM
methodNotes: SPR, TFPI immobilized
Put down the number, then write its unit next to it.

Some binders with known koff results, for comparison:
2A8 HC_I51D (Fab, V domains shown, also called 2A8-12) VH: QVQLVESGGGLVQPGGSLRLSCAASGFTFRSYGMSWVRQAPGKGLEWVSSDRGSSSSTYYADSVKGRFTISRDNSKNTLYLQMNSLRAEDTAVYYCARKYRYWFDYWGQGTLVTVSS VL: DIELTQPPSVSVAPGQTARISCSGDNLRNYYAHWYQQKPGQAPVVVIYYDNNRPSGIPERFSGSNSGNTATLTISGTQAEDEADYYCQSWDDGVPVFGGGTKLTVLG
0.00495 s⁻¹
2A8 HC_S54F (Fab, V domains shown, also called 2A8-7) VH: QVQLVESGGGLVQPGGSLRLSCAASGFTFRSYGMSWVRQAPGKGLEWVSSIRGFSSSTYYADSVKGRFTISRDNSKNTLYLQMNSLRAEDTAVYYCARKYRYWFDYWGQGTLVTVSS VL: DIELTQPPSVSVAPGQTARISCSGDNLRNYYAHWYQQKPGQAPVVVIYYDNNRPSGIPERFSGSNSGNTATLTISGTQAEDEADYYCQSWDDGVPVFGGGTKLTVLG
0.00204 s⁻¹
2A8 HC_I51E (Fab, V domains shown, also called 2A8-6) VH: QVQLVESGGGLVQPGGSLRLSCAASGFTFRSYGMSWVRQAPGKGLEWVSSERGSSSSTYYADSVKGRFTISRDNSKNTLYLQMNSLRAEDTAVYYCARKYRYWFDYWGQGTLVTVSS VL: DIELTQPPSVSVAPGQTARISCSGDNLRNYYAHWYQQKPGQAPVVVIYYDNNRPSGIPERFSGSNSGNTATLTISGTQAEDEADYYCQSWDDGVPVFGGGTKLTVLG
0.00162 s⁻¹
2A8 LC_Y48F (Fab, V domains shown, also called 2A8-14) VH: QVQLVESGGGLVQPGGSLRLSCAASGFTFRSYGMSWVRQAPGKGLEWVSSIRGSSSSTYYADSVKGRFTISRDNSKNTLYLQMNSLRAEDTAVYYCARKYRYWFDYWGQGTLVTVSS VL: DIELTQPPSVSVAPGQTARISCSGDNLRNYYAHWYQQKPGQAPVVVIFYDNNRPSGIPERFSGSNSGNTATLTISGTQAEDEADYYCQSWDDGVPVFGGGTKLTVLG
0.003 s⁻¹
2A8 LC_N51V (Fab, V domains shown, also called 2A8-13) VH: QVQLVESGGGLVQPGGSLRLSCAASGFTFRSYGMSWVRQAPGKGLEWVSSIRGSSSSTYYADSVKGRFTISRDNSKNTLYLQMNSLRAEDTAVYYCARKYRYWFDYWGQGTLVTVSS VL: DIELTQPPSVSVAPGQTARISCSGDNLRNYYAHWYQQKPGQAPVVVIYYDVNRPSGIPERFSGSNSGNTATLTISGTQAEDEADYYCQSWDDGVPVFGGGTKLTVLG
0.0022 s⁻¹
2A8 wild-type Fab (Fab, V domains shown, Fab with c-myc (or HA, or none) and 6xHis tag at the C-terminus of the heavy chain; also called 2A8wt; 2A8 wt) VH: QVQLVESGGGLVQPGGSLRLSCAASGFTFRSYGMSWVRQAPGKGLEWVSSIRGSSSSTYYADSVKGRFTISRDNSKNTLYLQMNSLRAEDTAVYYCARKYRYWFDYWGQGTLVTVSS VL: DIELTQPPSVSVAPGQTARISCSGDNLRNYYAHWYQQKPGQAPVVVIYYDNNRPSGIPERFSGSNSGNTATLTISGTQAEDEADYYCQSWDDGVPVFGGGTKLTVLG
0.007 s⁻¹
2A8 LC_A32N (Fab, V domains shown, also called 2A8-11) VH: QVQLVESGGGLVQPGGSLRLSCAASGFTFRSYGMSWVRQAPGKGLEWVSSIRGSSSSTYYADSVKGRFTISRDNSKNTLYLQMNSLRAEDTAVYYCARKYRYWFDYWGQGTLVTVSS VL: DIELTQPPSVSVAPGQTARISCSGDNLRNYYNHWYQQKPGQAPVVVIYYDNNRPSGIPERFSGSNSGNTATLTISGTQAEDEADYYCQSWDDGVPVFGGGTKLTVLG
0.0041 s⁻¹
2A8 HC_G33P (Fab, V domains shown, also called 2A8-1) VH: QVQLVESGGGLVQPGGSLRLSCAASGFTFRSYPMSWVRQAPGKGLEWVSSIRGSSSSTYYADSVKGRFTISRDNSKNTLYLQMNSLRAEDTAVYYCARKYRYWFDYWGQGTLVTVSS VL: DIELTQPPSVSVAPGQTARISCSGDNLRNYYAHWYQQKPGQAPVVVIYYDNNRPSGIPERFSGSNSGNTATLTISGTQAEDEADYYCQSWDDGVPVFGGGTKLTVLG
0.00224 s⁻¹

**Q:** Specify measured koff for 2A8 HC_K99V (Fab, V domains shown, also called 2A8-10) VH: QVQLVESGGGLVQPGGSLRLSCAASGFTFRSYGMSWVRQAPGKGLEWVSSIRGSSSSTYYADSVKGRFTISRDNSKNTLYLQMNSLRAEDTAVYYCARVYRYWFDYWGQGTLVTVSS VL: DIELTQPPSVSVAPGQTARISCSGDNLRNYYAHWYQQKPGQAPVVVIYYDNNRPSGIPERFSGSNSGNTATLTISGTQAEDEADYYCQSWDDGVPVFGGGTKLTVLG .
**A:** 0.00254 s⁻¹

**Q:** Specify measured koff for 2A8 HC_S55R (Fab, V domains shown, also called 2A8-8) VH: QVQLVESGGGLVQPGGSLRLSCAASGFTFRSYGMSWVRQAPGKGLEWVSSIRGSRSSTYYADSVKGRFTISRDNSKNTLYLQMNSLRAEDTAVYYCARKYRYWFDYWGQGTLVTVSS VL: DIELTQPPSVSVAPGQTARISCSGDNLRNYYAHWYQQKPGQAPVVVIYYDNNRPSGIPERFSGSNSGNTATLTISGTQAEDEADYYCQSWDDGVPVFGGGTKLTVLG .
**A:** 0.00394 s⁻¹
